molecular target: CAAX prenyl protease 2 (Saccharomyces cerevisiae S288c); type: biochemical
Sequence (Q03530 whole entry): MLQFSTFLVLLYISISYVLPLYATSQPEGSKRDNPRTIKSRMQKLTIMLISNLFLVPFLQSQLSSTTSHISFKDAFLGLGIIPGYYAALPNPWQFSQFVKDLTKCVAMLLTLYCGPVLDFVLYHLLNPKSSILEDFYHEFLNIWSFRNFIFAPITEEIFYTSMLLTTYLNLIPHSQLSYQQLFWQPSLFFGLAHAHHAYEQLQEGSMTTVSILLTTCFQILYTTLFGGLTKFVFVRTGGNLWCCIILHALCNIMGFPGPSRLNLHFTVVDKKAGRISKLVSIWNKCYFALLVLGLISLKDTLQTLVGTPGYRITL
Calls of active or inactive are those of the source.
Property: AC50

Please supply the value of reported AC50 for the item CC(C)OCCCNC(=O)c1c(N)n(CC2CCCO2)c2nc3ccccc3nc12 (stereo not given) 15 µM (active)

Determine from records and report AC50 for COC(=O)Cc1c(C)c2ccc(OCc3nn[nH]n3)c(C)c2oc1=O 24.6 µM (active)

In one line, give reported AC50 of the entry COc1ccc(CN2CCN(C(c3ccc(F)cc3)c3ccc(F)cc3)CC2)c(OC)c1OC . 4.67 µM (active)

Quote AC50 reported for COc1ccc(C2CC(c3ccc4ccccc4c3)=NN2C(=O)CNC2CCCCC2)cc1 (stereo not given) please. 9.16 µM (active)

Determine its reported AC50: O=C(/C=C/c1cn(-c2ccccc2)nc1-c1cccs1)NCCN1CCOCC1 10.8 µM (active)
